Measured values drawn from ChEMBL document CHEMBL1146122 for this set.

- Procedure details: Selectivity for human NPY4 over rat-human hybrid NPY5 receptor
Positions of bridges follow the written chain, without caps; N, C: chain ends. Non-standard residues stand in square brackets, D forms with d. Residues, ends and D or L forms follow the SMILES beside them. Chains are numbered I, II in the order given. Nva = CCC[C@H](N)C(=O)O
Measure: Selectivity ratio
Please respond with just the number, no unit label.

Worked set:
Form field: reported Selectivity ratio of CCC[C@H](NC(=O)[C@H](CCCN=C(N)N)NC(=O)[C@H](Cc1c[nH]c2ccccc12)NC(=O)[C@@H](N)CCCC[C@H](N)C(=O)N[C@@H](Cc1c[nH]c2ccccc12)C(=O)N[C@@H](CCCN=C(N)N)C(=O)N[C@@H](CCC)C(=O)N[C@@H](CCCN=C(N)N)C(=O)N[C@@H](Cc1ccc(O)cc1)C(N)=O)C(=O)N[C@@H](CCCN=C(N)N)C(=O)N[C@@H](Cc1ccc(O)cc1)C(N)=O (stereo in doubt; 4B)
140

Form field: reported Selectivity ratio of CCC[C@H](NC(=O)[C@H](CCCN=C(N)N)NC(=O)[C@H](Cc1c[nH]c2ccccc12)NC(=O)[C@@H](N)CCC[C@H](N)C(=O)N[C@@H](Cc1c[nH]c2ccccc12)C(=O)N[C@@H](CCCN=C(N)N)C(=O)N[C@@H](CCC)C(=O)N[C@@H](CCCN=C(N)N)C(=O)N[C@@H](Cc1ccc(O)cc1)C(N)=O)C(=O)N[C@@H](CCCN=C(N)N)C(=O)N[C@@H](Cc1ccc(O)cc1)C(N)=O (stereo in doubt; 2B)
550

Form field: reported Selectivity ratio of CCC[C@H](NC(=O)[C@H](CCCN=C(N)N)NC(=O)[C@H](Cc1c[nH]c2ccccc12)NC(=O)[C@@H](N)CCC[C@H](N)C(=O)N[C@@H](Cc1c[nH]c2ccccc12)C(=O)N[C@@H](CCCN=C(N)N)C(=O)N[C@@H](CCC)C(=O)N[C@@H](CCCN=C(N)N)C(=O)N[C@@H](Cc1ccc(O)cc1)C(N)=O)C(=O)N[C@@H](CCCN=C(N)N)C(=O)N[C@@H](Cc1ccc(O)cc1)C(N)=O (stereo in doubt; 2A)
500

Others:
Form field: reported Selectivity ratio of CCC[C@H](NC(=O)[C@H](CCCN=C(N)N)NC(=O)[C@H](Cc1c[nH]c2ccccc12)NC(=O)[C@@H](N)CCCC[C@H](N)C(=O)N[C@@H](Cc1c[nH]c2ccccc12)C(=O)N[C@@H](CCCN=C(N)N)C(=O)N[C@@H](CCC)C(=O)N[C@@H](CCCN=C(N)N)C(=O)N[C@@H](Cc1ccc(O)cc1)C(N)=O)C(=O)N[C@@H](CCCN=C(N)N)C(=O)N[C@@H](Cc1ccc(O)cc1)C(N)=O (stereo in doubt; 4A)
30

Form field: reported Selectivity ratio of CCC[C@H](NC(=O)[C@H](CCCN=C(N)N)NC(=O)[C@H](Cc1c[nH]c2ccccc12)NC(=O)[C@@H](N)CSSC[C@H](N)C(=O)N[C@@H](Cc1c[nH]c2ccccc12)C(=O)N[C@@H](CCCN=C(N)N)C(=O)N[C@@H](CCC)C(=O)N[C@@H](CCCN=C(N)N)C(=O)N[C@@H](Cc1ccc(O)cc1)C(N)=O)C(=O)N[C@@H](CCCN=C(N)N)C(=O)N[C@@H](Cc1ccc(O)cc1)C(N)=O (I: H-CWR[Nva]RY-NH2 / II: H-CWR[Nva]RY-NH2; disulfide I:1-II:1)
30
